- system: FGFR3 (UniProt P22607)
- Sequence (P22607 whole entry, looked up): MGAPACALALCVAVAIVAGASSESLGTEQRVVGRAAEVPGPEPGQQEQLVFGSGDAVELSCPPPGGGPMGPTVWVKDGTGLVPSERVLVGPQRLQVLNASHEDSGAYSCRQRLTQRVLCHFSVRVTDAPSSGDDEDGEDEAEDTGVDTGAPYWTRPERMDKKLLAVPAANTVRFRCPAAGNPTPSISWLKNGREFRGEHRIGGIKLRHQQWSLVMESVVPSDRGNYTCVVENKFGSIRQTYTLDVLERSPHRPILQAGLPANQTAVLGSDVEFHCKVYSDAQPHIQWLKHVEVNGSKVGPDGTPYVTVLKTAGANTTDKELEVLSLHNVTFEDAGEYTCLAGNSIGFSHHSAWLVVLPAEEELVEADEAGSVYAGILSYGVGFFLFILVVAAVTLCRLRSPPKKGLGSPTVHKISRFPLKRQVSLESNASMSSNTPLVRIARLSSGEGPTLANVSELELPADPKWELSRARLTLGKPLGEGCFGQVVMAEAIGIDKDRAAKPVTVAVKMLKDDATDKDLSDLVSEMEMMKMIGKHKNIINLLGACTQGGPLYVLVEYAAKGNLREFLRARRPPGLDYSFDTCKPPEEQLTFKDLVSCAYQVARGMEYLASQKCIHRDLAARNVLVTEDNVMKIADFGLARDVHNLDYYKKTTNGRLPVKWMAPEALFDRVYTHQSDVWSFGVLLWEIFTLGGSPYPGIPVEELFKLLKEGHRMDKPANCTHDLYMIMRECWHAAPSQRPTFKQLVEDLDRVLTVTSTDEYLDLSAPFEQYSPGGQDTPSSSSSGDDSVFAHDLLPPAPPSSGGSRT
- measurementNotes: phosphorylation enrichment, bacterial display (enrichment ratio); higher = better substrate or ligand; peptides without Tyr show the background;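 further: 11-residue human phosphosite peptides and single-mutation variants displayed on the E. coli surface, counted by deep sequencing, each peptide's frequency after selection divided by its frequency in the unselected input library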;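 further: frequency after pTyr selection over input frequency; kinase dosed for 20-30% of maximal phosphorylation in three min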
# phosphorylation enrichment >= 0.8 gives YES, anything below gives NO

{"columns": ["residueCodes", "assignedClass"],
 "data": [
  ["LSQDVYEEDSY [RET_Y900_R897Q]", "YES"],
  ["SVCPDYDLCSV [SQSTM1_Y148]", "YES"],
  ["RVVVPYEPPEV [TP53_Y220_S215R]", "NO"],
  ["KSPDSYQKILL [ATM_Y1415]", "NO"],
  ["IFRASYVPFAA [RBM47_Y541_G538R_YF]", "NO"],
  ["ITVPAYFNDLQ [HSPA9_Y196_S200L]", "NO"],
  ["TTPGPHRSIFF [MPG_Y71_Y71H_YF]", "NO"],
  ["GEFHVYRHLRW [PRKRIP1_Y82_R87W]", "NO"],
  ["ALEQKYWALGQ [MAP1A_Y1555]", "NO"],
  ["LNWIYYKDQTG [RS1_Y166]", "YES"],
  ["LNTFHYAGVSA [POLR2A_Y1109]", "NO"],
  ["RLQEDYDHSYY [ESD_Y258_G257D]", "YES"],
  ["ARMTNCGLPRF [TSPAN12_Y138_Y138C_YF]", "NO"],
  ["RMDGKYACSYT [FLNB_Y704_T703K]", "NO"],
  ["LGGSPYPGVPV [FGFR1_Y701]", "NO"],
  ["QFLMKYVWSAS [ABCD1_Y337]", "NO"],
  ["CLGNQYVNVMN [SLC3A1_Y461_R456C]", "YES"],
  ["FLNSIYKSRDE [ROS1_Y2227]", "NO"],
  ["DGYTDYAEFAK [MCFD2_Y138_I136T]", "NO"],
  ["LDLSFYPTSSS [EMD_Y182_YF]", "YES"],
  ["GIVKAYYVHAR [AIPL1_Y267_R270H]", "NO"],
  ["FVPAAYVKKLD [SPTAN1_Y1020]", "NO"],
  ["NLNGKYFKPRA [ANGPTL3_Y417_N418Y_YF]", "NO"],
  ["EARRVYRDIIH [ALDH5A1_Y175_G176R]", "NO"],
  ["ADAGMYGVLPW [PLP1_Y207_R205G]", "NO"],
  ["GNFSGYDDAWD [POLR1C_Y36_YF]", "NO"],
  ["VFSIDYFRVGG [NTRK2_Y706_T704I_YF]", "YES"]
]}

* * *

- System: Fer (mouse)
- measurementNotes: phosphorylation enrichment, bacterial display (enrichment ratio); higher = better substrate or ligand; peptides without Tyr show the background

{"columns": ["residueCodes", "phosphorylation enrichment"],
 "data": [
  ["TTSQLYDAMPI [PDPK1_Y9_V12M]", 12.4],
  ["HYGNNYTDVLQ [MACC1_Y803_R804T]", 2.53],
  ["TTPGPHRSIFF [MPG_Y71_Y71H_YF]", 0.328],
  ["THEVRYISAGQ [SLCO4A1_Y77_V78I]", 0.379],
  ["IVRSLYEDVED [VHL_Y185_L188V]", 1.69],
  ["GFEVVYMTEPI [HSP90AB1_Y512]", 0.403],
  ["SSREEYFIGGG [GYPC_Y126_K124E]", 0.486]
]}

Data credit: the supplement of paper PMC10065799
